meta.source: ChEMBL document CHEMBL4392833

Test system: A549
TEST METHOD NOTES: Growth inhibition of human A549 cells by MTT assay
Format: cell-based
ASSAY SETUP: a549
VALUE TYPE: GI90

Use the examples below as a reference point.
Cc1nc(C)c(-c2nn(-c3ccc(F)cc3)cc2C2CC(c3cc(Cl)ccc3O)=NN2)s1 (stereo not drawn); > 250 µg/mL
Cc1nc(C)c(-c2nn(-c3ccc(F)cc3)cc2C2CC(c3c(O)cc(C)c(Cl)c3C)=NN2)s1 (stereo not drawn); 88.98 µg/mL
Cc1nc(C)c(-c2nn(-c3ccc(F)cc3)cc2/C=C/C(=O)c2cc(Cl)c(C)cc2O)s1; > 250 µg/mL
CO[C@H]1/C=C/O[C@@]2(C)Oc3c(C)c(O)c4c(O)c(c(/C=N/N5CCN(C)CC5)c(O)c4c3C2=O)NC(=O)/C(C)=C\C=C\[C@H](C)[C@H](O)[C@@H](C)[C@@H](O)[C@@H](C)[C@H](OC(C)=O)[C@@H]1C; > 100 µg/mL
Cc1ccc(O)c(C(=O)/C=C/c2cn(-c3ccc(F)cc3)nc2-c2sc(C)nc2C)c1; 136.87 µg/mL

-- ask State GI90 (A549) of Cc1nc(C)c(-c2nn(-c3ccc(F)cc3)cc2/C=C/C(=O)c2cc(Cl)cc(Cl)c2O)s1 .
-- reply > 250 µg/mL

-- ask Report value: GI90, system: A549, compound: Cc1nc(C)c(-c2nn(-c3ccc(F)cc3)cc2C2CC(c3cc(Br)ccc3O)=NN2)s1 (stereo not drawn)
-- reply 154.68 µg/mL

-- ask Look up and report GI90, with A549 as system, for Cc1nc(C)c(-c2nn(-c3ccc(F)cc3)cc2/C=C/C(=O)c2cc(Cl)ccc2O)s1
-- reply > 250 µg/mL
